Value source: paper PMC4253602

Kindly supply the reported two-hybrid reporter activity (Gal-4 = 1) values for the records listed here.
- target_under_test: full-length T877A-AR (VP16 fusion) (human)
- measurement_notes: two-hybrid
Just the number, please.

Data request: Name the reported two-hybrid reporter activity (Gal-4 = 1) value associated with the binder SSGGFERFYIAQ [A41 (Gal-4 fusion)]
Data returned: 3060

Data request: Suppose we examine the binder PAPKFKEFFYAE [A43 (Gal-4 fusion)] ; what two-hybrid reporter activity (Gal-4 = 1) value has been reported?
Data returned: 7350

Data request: Which two-hybrid reporter activity (Gal-4 = 1) value is on record for SPFEEHYLSTQS [B34 (Gal-4 fusion)] ?
Data returned: 37

Data request: Recorded two-hybrid reporter activity (Gal-4 = 1) for NTPLFQTFYNQR [B45 (Gal-4 fusion)] , please?
Data returned: 12600

Data request: GET /values?readout=two-hybrid reporter activity (Gal-4 = 1)&item= HTSMFESFFRKE [HF-15 (Gal-4 fusion)]
Data returned: 13900

Data request: Return reported two-hybrid reporter activity (Gal-4 = 1); argument: SPTPHFTRLFHY [B310 (Gal-4 fusion)]
Data returned: 12100

Data request: I'd like to know its two-hybrid reporter activity (Gal-4 = 1). The binder in question is HPTHSSRLWELLMEATPTM [D30 (Gal-4 fusion)]
Data returned: 18100

Data request: Requested read-out: two-hybrid reporter activity (Gal-4 = 1). Entry: SDSAFSRLYTRS [C320 (Gal-4 fusion)]
Data returned: 12700

Data request: Fill in the blank: the reported two-hybrid reporter activity (Gal-4 = 1) of VLPGSTFERFYR [A49 (Gal-4 fusion)] is ____.
Data returned: 26

Data request: Consider the binder KTRYIFDLFYKRKAY [BUD31 peptide (Gal-4 fusion)] and give its measured two-hybrid reporter activity (Gal-4 = 1).
Data returned: 12000

Data request: So what does the record say about two-hybrid reporter activity (Gal-4 = 1) for HNTKFSTFYNMD [B37 (Gal-4 fusion)] ?
Data returned: 6240

Data request: For the binder NTNAFSRLFYPS [#3-18 (Gal-4 fusion)] , what two-hybrid reporter activity (Gal-4 = 1) is on record?
Data returned: 11000

Data request: // returns reported two-hybrid reporter activity (Gal-4 = 1) for input SSFADLWRNEAT [C314 (Gal-4 fusion)]
Data returned: 859

Data request: Sample SPTRLFDHLYMT [B423 (Gal-4 fusion)] — what was its two-hybrid reporter activity (Gal-4 = 1)?
Data returned: 401

Data request: two-hybrid reporter activity (Gal-4 = 1) for SHSSFYQYYLDN [A310 (Gal-4 fusion)] ?
Data returned: 3590

Data request: Suppose we examine the binder TEPPAAFRQLFF [C317 (Gal-4 fusion)] ; what two-hybrid reporter activity (Gal-4 = 1) value has been reported?
Data returned: 5230

Data request: // query two-hybrid reporter activity (Gal-4 = 1) value for entry RGAFQNLFQSV [ARN20 (Gal-4 fusion)]
Data returned: 1580
